- ASSAY OVERVIEW: qHTS Assay for Spectroscopic Profiling in 4-MU Spectral Region
- STUDY CONDITIONS: compound autofluorescence, 340/450 nm, 4-MU equivalents
The whole screen tested about 59,000 compounds, of which about 6,200 (11%) were called active. Another 9% or so got no clear call; they are omitted. Rule as the data show it: active = max dye-equivalent concentration above about 10 nM; inconclusive = mostly about 1.1 nM to 9.6 nM; inactive = weaker than that. Only a selection was taken, and actives are over-represented in it overall.
Lab note: assign the record to one of active, inactive

Past entries and their recorded results:
Cc1cc(C)c(C#N)c(SCc2ccc3c(c2)OCO3)n1 ... inactive
C=CCN(c1ccc(C(N)=O)cc1)S(C)(=O)=O ... inactive
CCN1C(=O)/C(=C2\SC(N3CCCCC3)=NC2=O)c2ccccc21 ... active
O=C(O)C1C2C=CC(C2)C1C(=O)N1CCN(CCO)CC1 (configuration not stated) ... inactive

IN: I would be grateful if you could indicate the recorded call for `CCN(CC)S(=O)(=O)c1ccc2[nH]cc(C(=O)NCCc3ccccc3)c(=O)c2c1` .
OUT: inactive

IN: I would be grateful if you could indicate the recorded call for `COC(=O)c1cn(CC(=O)NCc2cccs2)c2ccccc12` .
OUT: inactive

IN: I would be grateful if you could indicate the recorded call for `COc1ccc(C)cc1NC(=O)c1[nH]c(C)c(C(C)=O)c1C` .
OUT: inactive

IN: I would be grateful if you could indicate the recorded call for `Cn1cnc2c1c(=O)n(Cc1c(Cl)cccc1Cl)c(=O)n2C` .
OUT: inactive

* * *

- ASSAY OVERVIEW: qHTS Assay for Spectroscopic Profiling in 4-MU Spectral Region
- STUDY CONDITIONS: compound autofluorescence, 340/450 nm, 4-MU equivalents
The campaign covered roughly 59,000 compounds. About 6,200 (11%) were called active. About 9% were inconclusive and are not listed. No stated cut-off is given here; in the data, active means max dye-equivalent concentration above about 10 nM; inconclusive means mostly about 1.1 nM to 9.6 nM; inactive means weaker than that. This excerpt belongs to a sample that is enriched for actives.
Lab note: assign the record to one of 1 (active), 0 (inactive)

Past entries and their recorded results:
CC(C)COC(=O)c1ccc(NC(=O)C2C3C=CC(C3)C2C(=O)O)cc1 (stereo unspecified) ... 0
CCC(CC)C(=O)Nc1cc(C(=O)OC)cc(C(=O)OC)c1 ... 0
CC1CC(c2ccccc2)n2nc(NC(=O)c3cccs3)nc2N1 (stereo unspecified) ... 0
Nn1c(SCC(=O)NC(=O)NC2CCCC2)nnc1-c1ccccc1F ... 0
O=C(Nc1ccc(Oc2ccccc2)cc1)c1ccco1 ... 0
O=C(NCc1ccccn1)c1cnc2sccn2c1=O ... 0
O=C(CCn1c(=S)[nH]c2ccccc2c1=O)NCCCN1CCCC1=O ... 0
CCOc1ccccc1C(=O)NCc1ccco1 ... 0
O=C(NCc1ccc(Cl)cc1)c1cc2c(nc3sccn32)s1 ... 0
O=C(CSc1nnc(-c2ccco2)o1)NCC(=O)c1ccccc1 ... 0

IN: I would be grateful if you could indicate the recorded call for O=C(Nc1ccc2c(c1)OCCO2)C1CCCN(c2ncccn2)C1 (stereo unspecified) .
OUT: 0

IN: I would be grateful if you could indicate the recorded call for `Cc1ccc(C(=O)COc2cccc(NC(=O)c3ccco3)c2)cc1` .
OUT: 0

IN: I would be grateful if you could indicate the recorded call for CC1CCc2c(sc(NC(=O)c3ccc(Cn4cc(Br)cn4)o3)c2C(N)=O)C1 (stereo unspecified) .
OUT: 1

* * *

- ASSAY OVERVIEW: qHTS Assay for Spectroscopic Profiling in 4-MU Spectral Region
- STUDY CONDITIONS: compound autofluorescence, 340/450 nm, 4-MU equivalents; stronger effect = higher value
Hit rate of the full screen: of about 59,000 compounds, about 6,200 (11%) were called active. About 9% were inconclusive and are not listed. Many of the other results were omitted from the sample, so actives are more common in it than they were.
MEASUREMENT NAME: max dye-equivalent concentration

O=C(Nc1cccc(-c2nnc(-c3ccccc3)o2)c1)C1CCCO1 (stereo unspecified) ... inactive
O=C(Nc1ccc(-c2nnc(-c3ccccc3)o2)cc1)c1ccc(Br)o1 ... 37 nM (active)
CCOc1ccc2[nH]c(=O)c(C(c3nnnn3CCOC)N3CCOCC3)cc2c1 (stereo unspecified) ... 720 nM (active)
O=C(O)CSCNC(=O)CC12CC3CC(CC(C3)C1)C2 ... inactive
CC1=NCCN1S(=O)(=O)c1ccc(Br)c(C)c1 ... inactive

Here's the next entry for you.
IN: Can you look up the measured max dye-equivalent concentration of O=C1CN(C(=O)COC(=O)C2CC(=O)N(Cc3ccco3)C2)c2ccccc2N1 (stereo unspecified) for me?
OUT: inactive

* * *

- ASSAY OVERVIEW: qHTS Assay for Spectroscopic Profiling in 4-MU Spectral Region
- STUDY CONDITIONS: compound autofluorescence, 340/450 nm, 4-MU equivalents; stronger effect = higher value
Screen size: about 59,000 compounds; about 6,200 (11%) were called active. Another 9% or so got no clear call; they are omitted. Shown is part of a subset that was picked to be rich in actives.
MEASUREMENT NAME: max dye-equivalent concentration

Here's what some known entries look like.
CCOC(=O)c1cc(NC(=O)c2cccnc2)cc(C(=O)OCC)c1 ... inactive
O=C(CNC(=O)c1ccc(Cl)cc1Cl)NCC(=O)Nc1ccccc1N1CCOCC1 ... inactive
CC[C@]1(O)CC2CN(CCc3c([nH]c4ccccc34)[C@@](C(=O)OC)(c3cc4c(cc3OC)N(C=O)[C@H]3[C@@](O)(C(=O)OC)[C@H](OC(C)=O)[C@]5(CC)C=CCN6CC[C@]43[C@@H]65)C2)C1 (stereo partly drawn) ... inactive
CC(C)N(C(=O)COC(=O)c1ccccc1C(=O)N1CCN(c2ccc(F)cc2)CC1)C(C)C ... inactive
CC1CCCN(c2ccc(C(=O)NCCc3ccccc3)cn2)C1 (stereo not drawn) ... inactive
COc1ccc(C(=O)NC(=O)CSc2nnc(-c3ccco3)n2-c2ccccc2)cc1 ... inactive
Cc1nc2ccc(NC(=O)N3CCC(c4ccccc4)C3)cc2nc1C (stereo not drawn) ... 550 nM (active)
O=C(NCc1ccccn1)c1c(O)c2c([nH]c1=O)CCCC2 ... inactive

Here's the next entry for you.
IN: Can you look up the measured max dye-equivalent concentration of `Cc1ccccc1Nc1nnc(C)c(=O)[nH]1` for me?
OUT: inactive

* * *

- ASSAY OVERVIEW: qHTS Assay for Spectroscopic Profiling in 4-MU Spectral Region
- STUDY CONDITIONS: compound autofluorescence, 340/450 nm, 4-MU equivalents
Among all 59,000 compounds or so, about 6,200 (11%) were called active. Another 9% or so got no clear call; they are omitted. Rule as the data show it: active = max dye-equivalent concentration above about 10 nM; inconclusive = mostly about 1.1 nM to 9.6 nM; inactive = weaker than that. The sample as a whole holds a higher share of actives than the screen did.
Lab note: assign the record to one of yes = active, no = inactive

Past entries and their recorded results:
COc1cc(-c2noc(C3CCCN(S(=O)(=O)c4cccc(Cl)c4)C3)n2)cc(OC)c1OC (stereo not given) ... no
COC(=O)[C@@H]1[C@H]2C[C@H]3c4[nH]c5cc(OC)ccc5c4CCN3C[C@@H]2C[C@@H](OC(=O)c2cc(OC)c(OC)c(OC)c2)[C@@H]1OC ... no

IN: I would be grateful if you could indicate the recorded call for `CCN1C(=O)/C(=C\N2CCN(c3cccc(Cl)c3)CC2)SC1=S` .
OUT: no

IN: I would be grateful if you could indicate the recorded call for `CC(=O)Nc1ccn(Cc2c(F)cccc2Cl)n1` .
OUT: no

IN: I would be grateful if you could indicate the recorded call for O=C1c2ccccc2C(O)N1Cc1ccccc1 (stereo not given) .
OUT: yes

* * *

- ASSAY OVERVIEW: qHTS Assay for Spectroscopic Profiling in 4-MU Spectral Region
- STUDY CONDITIONS: compound autofluorescence, 340/450 nm, 4-MU equivalents
Among all 59,000 compounds or so, about 6,200 (11%) were called active. Another 9% or so got no clear call; they are omitted. No stated cut-off is given here; in the data, active means max dye-equivalent concentration above about 10 nM; inconclusive means mostly about 1.1 nM to 9.6 nM; inactive means weaker than that. This excerpt belongs to a sample that is enriched for actives.
Lab note: assign the record to one of Yes for active, No for inactive

Past entries and their recorded results:
Cc1ccc(OCC(=O)Nc2ccc(-c3nnc(-c4ccco4)o3)cc2)cc1 ... No
CC(c1nnc(SCC(=O)Nc2sccc2C#N)n1-c1ccc(Cl)cc1)N(C)C (stereo not drawn) ... No
O=C(c1csnn1)N1CCC2(CC1)CN(c1ncccn1)C2 ... No

IN: I would be grateful if you could indicate the recorded call for `COc1ccc(CC(=O)Nc2ccc(-c3nnc(-c4ccc(C)cc4)o3)cc2)cc1` .
OUT: No

* * *

- ASSAY OVERVIEW: qHTS Assay for Spectroscopic Profiling in 4-MU Spectral Region
- STUDY CONDITIONS: compound autofluorescence, 340/450 nm, 4-MU equivalents
Among all 59,000 compounds or so, about 6,200 (11%) were called active. Inconclusive results (about 9%) are left out. Rule as the data show it: active = max dye-equivalent concentration above about 10 nM; inconclusive = mostly about 1.1 nM to 9.6 nM; inactive = weaker than that. Many of the other results were omitted from the sample, so actives are more common in it than they were.
Lab note: assign the record to one of active, inactive

Past entries and their recorded results:
O=C(c1ccc2c(c1)C(=O)N(c1ccc(Cl)cc1)C2=O)N1CCN(c2ccccn2)CC1 ... inactive
CC1CCCC(NC(=O)CSc2nccn2C)C1C (configuration not stated) ... inactive
O=C(c1cc(C(F)(F)F)cc(C(F)(F)F)c1)N1CCC2(CCCN(Cc3ccncc3)C2)CC1 ... inactive
CC(C)(C)c1cc(CN2CCN(CCC#N)CC2)cc(C(C)(C)C)c1O ... inactive

IN: I would be grateful if you could indicate the recorded call for `CCOC(=O)c1c(NC(=O)CSc2nnc(C)c(=O)[nH]2)sc2c1CCC2` .
OUT: inactive

IN: I would be grateful if you could indicate the recorded call for CC12C(=O)N(n3cnnc3)C(=O)C1C1C=CC2C1 (configuration not stated) .
OUT: inactive

IN: I would be grateful if you could indicate the recorded call for COc1ccc(OC)c(C2N(c3ccccn3)C(=O)C3CCCN32)c1 (configuration not stated) .
OUT: inactive

IN: I would be grateful if you could indicate the recorded call for `CCN(CC)S(=O)(=O)c1ccc2nc(COC(=O)c3n[nH]c4ccccc34)[nH]c2c1` .
OUT: inactive

IN: I would be grateful if you could indicate the recorded call for `O=c1c(-c2ccc(F)cc2)nc2cncnc2n1-c1ccccc1` .
OUT: inactive

IN: I would be grateful if you could indicate the recorded call for `Cn1cc(-c2nc3cncnc3n(-c3ccccc3)c2=O)c2ccccc21` .
OUT: inactive

IN: I would be grateful if you could indicate the recorded call for `Cc1cc(N2CCCCC2)nc2ccc(Cc3ccc4nc(N5CCCCC5)cc(C)c4c3)cc12` .
OUT: active

IN: I would be grateful if you could indicate the recorded call for `CCOC(=O)N1CCN(C(=O)CSc2nnc(-c3c[nH]c4ccccc34)n2CCOC)CC1` .
OUT: inactive

IN: I would be grateful if you could indicate the recorded call for Cc1cccn2c(=O)c3cc(C#N)c(=NC(=O)c4cccnc4)n(CC4CCCO4)c3nc12 (configuration not stated) .
OUT: active

IN: I would be grateful if you could indicate the recorded call for `CC(=O)CSc1nnc(CSc2ncccn2)n1C1CCCCC1` .
OUT: inactive

IN: I would be grateful if you could indicate the recorded call for `O=C(CSc1nnc(-c2ccco2)n1Cc1ccccc1)NC(=O)NCc1ccco1` .
OUT: inactive

IN: I would be grateful if you could indicate the recorded call for `COc1ccc(CCNC(=O)CSc2nnc(-c3cccc(F)c3)o2)cc1OC` .
OUT: inactive

IN: I would be grateful if you could indicate the recorded call for `Clc1cccc(-c2nc3nc4ccccc4nc3n2Cc2ccco2)c1` .
OUT: active

IN: I would be grateful if you could indicate the recorded call for `Fc1ccc2nc(N3CCCCC3)sc2c1` .
OUT: inactive

IN: I would be grateful if you could indicate the recorded call for `CCOC(=O)C1(C(F)(F)F)N=C(N(C)C)OC(N(C)C)=N1` .
OUT: inactive

IN: I would be grateful if you could indicate the recorded call for `COc1ccc(Oc2ncc3nc(-c4ccc(F)cc4)c(=O)n(C)c3n2)cc1` .
OUT: inactive

IN: I would be grateful if you could indicate the recorded call for `COc1ccc(CN2C(=O)CN=C2Nc2ccc(C)cc2C)cc1` .
OUT: inactive

IN: I would be grateful if you could indicate the recorded call for `Cc1cc(C)c(C(=O)CN2C(=O)CCC2=O)cc1C` .
OUT: inactive
